Tested on: HCV NS5A replicon GT-1a
Test: HCV NS5A replicon anti-viral activity (EC50), dual-reporter Renilla luciferase, GT-1a
Type: cell-based
Conditions: Hepatitis C virus, genotype 1a / genotype 6a, read-out: Inhibitory activity against various HCV-NS5A subtypes(EC50, GT-1a to GT-6a) GT-1a
REPORTED PROPERTY: pEC50
Scale explanation: pEC50 corresponds to minus log10 of a concentration expressed in moles per litre.

// pEC50 lookup, molecule = `COC(=O)N[C@H](C(=O)N1CC=C[C@H]1c1ncc(-c2ccc(-c3ccc(-c4c[nH]c([C@@H]5CCCN5C(=O)[C@@H](NC(=O)OC)C(C)C)n4)cc3)cc2)[nH]1)C(C)C` , result: 10.41

// pEC50 lookup, molecule = COC(=O)N[C@@H](C(=O)N1CCC[C@H]1c1ncc(-c2ccc(-c3cc4sc(-c5cnc([C@@H]6CCCN6C(=O)[C@H](NC(=O)OC)c6ccccc6)[nH]5)cc4s3)cc2)[nH]1)c1ccccc1 [Ref-3, reference compound] , result: 10.29

// pEC50 lookup, molecule = `COC(=O)N[C@H](C(=O)N1CCC[C@H]1c1nc(-c2ccc(-c3ccc(-c4cnc([C@@H]5C=CCN5C(=O)[C@H](NC(=O)OC)c5ccccc5)[nH]4)cc3)cc2)c[nH]1)C(C)C` , result: 10.96

// pEC50 lookup, molecule = COC(=O)N[C@H](C(=O)N1CC2(CC2)C[C@H]1c1nc(-c2ccc3c(c2)C(F)(F)c2cc(-c4ccc5[nH]c([C@@H]6[C@H]7CC[C@H](C7)N6C(=O)[C@@H](NC(=O)OC)C(C)C)nc5c4)ccc2-3)c[nH]1)C(C)C [Ref-2, GS5885, reference compound] , result: 10.06

// pEC50 lookup, molecule = `COC(=O)N[C@H](C(=O)N1CC=C[C@H]1c1ncc(-c2ccc(-c3csc4c(-c5ccc6nc([C@@H]7CCCN7C(=O)[C@@H](NC(=O)OC)C(C)C)[nH]c6c5)csc34)cc2)[nH]1)C(C)C` , result: 11.40

// pEC50 lookup, molecule = `COC(=O)N[C@H](C(=O)N1CC=C[C@H]1c1ncc(-c2ccc(-c3cc4sc(-c5cnc([C@@H]6CCCN6C(=O)[C@H](NC(=O)OC)c6ccccc6)[nH]5)cc4s3)cc2)[nH]1)C(C)C` , result: 10.70

// pEC50 lookup, molecule = `COC(=O)N[C@H](C(=O)N1CCC[C@H]1c1ncc(-c2ccc(-c3cc4sc(-c5cnc([C@@H]6C=CCN6C(=O)[C@H](NC(=O)OC)c6ccccc6)[nH]5)cc4s3)cc2)[nH]1)C(C)C` , result: 11.05

// pEC50 lookup, molecule = `COC(=O)N[C@H](C(=O)N1CC=C[C@H]1c1nc2ccc(-c3csc4c(-c5ccc(-c6cnc([C@@H]7CCCN7C(=O)[C@@H](NC(=O)OC)C(C)C)[nH]6)cc5)csc34)cc2[nH]1)C(C)C` , result: 11.15

// pEC50 lookup, molecule = COC(=O)N[C@H](C(=O)N1CCC[C@H]1c1nc(-c2ccc(-c3ccc(-c4cnc([C@@H]5CCCN5C(=O)[C@@H](NC(=O)OC)C(C)C)[nH]4)cc3)cc2)c[nH]1)C(C)C [Ref-1, BMS-790052, reference compound] , result: 10.28
